Molecular target: UniProt P02787
Sequence (P02787 whole entry): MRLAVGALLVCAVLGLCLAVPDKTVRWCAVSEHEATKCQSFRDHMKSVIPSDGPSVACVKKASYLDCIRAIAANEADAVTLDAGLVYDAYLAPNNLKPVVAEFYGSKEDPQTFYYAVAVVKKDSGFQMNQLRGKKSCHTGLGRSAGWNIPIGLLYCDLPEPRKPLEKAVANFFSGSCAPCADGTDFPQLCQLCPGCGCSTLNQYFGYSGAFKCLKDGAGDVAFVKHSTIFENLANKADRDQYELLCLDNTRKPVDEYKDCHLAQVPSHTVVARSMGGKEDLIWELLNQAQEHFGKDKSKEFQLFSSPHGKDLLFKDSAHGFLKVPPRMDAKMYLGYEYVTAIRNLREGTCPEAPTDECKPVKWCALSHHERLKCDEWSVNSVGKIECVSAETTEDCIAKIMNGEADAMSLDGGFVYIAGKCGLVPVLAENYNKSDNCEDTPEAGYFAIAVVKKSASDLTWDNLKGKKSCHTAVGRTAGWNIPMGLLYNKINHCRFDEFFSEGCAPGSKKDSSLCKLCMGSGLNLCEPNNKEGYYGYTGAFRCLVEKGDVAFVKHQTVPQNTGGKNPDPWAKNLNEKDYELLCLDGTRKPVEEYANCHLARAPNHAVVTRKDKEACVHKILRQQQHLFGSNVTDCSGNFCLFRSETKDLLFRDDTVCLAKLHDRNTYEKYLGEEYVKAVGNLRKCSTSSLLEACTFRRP
Assay: Reduction of cellular iron uptake from 59Fe]transferrin in human SK-N-MC cells at 25 uM after 3 hrs relative to control
Assay type: cell-based
Parameters: scale not given: the % may be the effect or the level left
# Activity values compiled below
property: Activity (%)

>>> readout_value("C/C(=N\\NC(=S)Nc1ccccc1)c1ccccn1")
35
>>> readout_value("CCNC(=S)N/N=C(\\C)c1ccccn1")
4
>>> readout_value("C/C(=N\\NC(N)=S)c1ccccn1")
4
>>> readout_value("CC(=O)N(O)CCCCCNC(=O)CCC(=O)N(O)CCCCCNC(=O)CCC(=O)N(O)CCCCCN [DEFEROXAMINE]")
83
>>> readout_value("CN(C)C(=S)NN=C(c1ccccn1)c1ccccn1")
7
>>> readout_value("C=CCNC(=S)N/N=C(\\C)c1ccccn1")
4
>>> readout_value("CNC(=S)N/N=C(\\C)c1ccccn1")
4
>>> readout_value("C/C(=N\\NC(=S)N(C)C)c1ccccn1")
4
>>> readout_value("Cc1ncc(CO)c(/C=N/NC(=O)c2ccncc2)c1O [PYRIDOXAL ISONICOTINOYL HYDRAZONE]")
11
